Target: human GPR40 protein (Homo sapiens, UniProt O14842)
Sequence (O14842 whole entry): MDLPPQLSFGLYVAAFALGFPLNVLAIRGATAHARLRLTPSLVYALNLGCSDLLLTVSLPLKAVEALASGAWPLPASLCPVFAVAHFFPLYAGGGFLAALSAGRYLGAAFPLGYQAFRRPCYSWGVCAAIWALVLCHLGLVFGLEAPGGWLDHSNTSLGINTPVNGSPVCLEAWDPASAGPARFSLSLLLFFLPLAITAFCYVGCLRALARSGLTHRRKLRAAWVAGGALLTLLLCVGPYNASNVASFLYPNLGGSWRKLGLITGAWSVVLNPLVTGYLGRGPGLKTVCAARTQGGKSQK
assay.metric: IC50 (nM)

P. Cc1cc(OCCCS(C)(=O)=O)cc2c1-c1cccc(COc3ccc4c(c3)OC[C@H]4CC(=O)O)c1CCC2
Q. CCS(=O)(=O)CCCOc1cc(C)c2c(c1)CCCc1ccc(COc3ccc([C@H]4C[C@@H]4C(=O)O)cc3)cc1-2
I'd appreciate it if you could identify which of P and Q has the greater IC50. State your choice using its label.
P

1. CCS(=O)(=O)CCCOc1ccc2c(c1)CCCc1cc(F)c(CNc3ccc([C@H]4C[C@@H]4C(=O)O)cc3)cc1-2
2. CS(=O)(=O)CCCOc1ccc2c(c1)CCCc1ccc(COc3ccc([C@H]4C[C@@H]4C(=O)O)cc3)cc1-2
I'd appreciate it if you could identify which of 1 and 2 has the greater IC50. Identify your selection by its label.
2

Origin of the recorded values: patent US9643946B2
